# experimental-details: inhibitors of Toxoplasma growth in IFN-γ-primed HeLa – cell-based, ME49Luc, luciferase, 72 h, dose response (AID 1259418)
# details: T. gondii ME49Luc in IFN-y HeLa, hits give low values, -100% = high-dose IFN-γ control wells; at 19.5 µM unless noted
Out of some 3,400 compounds screened, about 840 (25%) were called active. About 11% were inconclusive and are not listed. A selection follows. Measured potencies and affinities stand elsewhere.
assay-metric: max activity

Study these solved cases before continuing.
O=C(Nc1ccc(-c2nc(-c3cccc(Br)c3)co2)cc1)Nc1cccc(F)c1 :: -13.2% [at 2.6 µM] (inactive)
Cc1oc(-c2ccccc2)nc1CSc1nc2c(c(=O)[nH]1)CN(Cc1ccc(Cl)cc1)CC2 :: 14.5% [at 0.16 µM] (inactive)
COc1ccc(CN2CCc3nc(SCc4nc(-c5ccc(C)cc5)oc4C)[nH]c(=O)c3C2)cc1 :: 16.3% (inactive)
Cc1oc(-c2ccc(OC(C)C)cc2)nc1CN(c1ccccc1)S(=O)(=O)c1cccs1 :: 21% (inactive)
COCCCNC(=O)Cn1c(=O)c(S(=O)(=O)c2ccccc2)cc2ccccc21 :: -8.44% [at 0.35 µM] (inactive)

[Q] Supply measured max activity of CCOc1ccc(N(Cc2nc(-c3cccc(C)c3)oc2C)S(=O)(=O)c2cccs2)cc1 in your reply.
[A] 11.4% [at 10 µM] (inactive)

[Q] Name the recorded max activity of the item COC(=O)c1cccc(NC(=O)Nc2ccc(-c3nc(-c4ccc(C)cc4C)co3)cc2)c1 in your answer.
[A] 21.2% (inactive)

[Q] Answer with the recorded max activity for the compound listed here: COc1ccc(N(Cc2nc(-c3ccc(OC(C)C)cc3)oc2C)S(=O)(=O)c2cccs2)cc1
[A] -11.1% [at 0.35 µM] (inactive)

[Q] Give the reported value of max activity for this record: CCOc1ccc(-c2nc(CN(c3ccc(OCC)cc3)S(=O)(=O)c3cccs3)c(C)o2)cc1
[A] 4% (inactive)
